Values from patent US20230048553A1

target: human CCR8 (chemokine receptor 8) (human, UniProt P51685 1-355)
Sequence (P51685 whole entry): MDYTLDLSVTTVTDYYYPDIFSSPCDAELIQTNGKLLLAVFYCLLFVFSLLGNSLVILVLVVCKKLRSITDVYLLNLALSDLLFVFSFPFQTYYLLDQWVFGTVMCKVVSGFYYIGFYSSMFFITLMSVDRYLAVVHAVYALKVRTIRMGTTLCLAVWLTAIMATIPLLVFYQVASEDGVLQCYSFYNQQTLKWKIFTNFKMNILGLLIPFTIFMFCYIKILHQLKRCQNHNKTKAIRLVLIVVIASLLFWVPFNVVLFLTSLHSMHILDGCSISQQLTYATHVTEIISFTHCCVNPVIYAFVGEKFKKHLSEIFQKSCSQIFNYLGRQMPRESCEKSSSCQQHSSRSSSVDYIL
method: cell-based or functional assay
Some binders, each annotated with its measured ADCC reporter huCCR8 EC50.
Write the answer as a number in nM, unit excluded.

Answered examples (3):
INSERT INTO results (binder, quantity_name, value_units, quantitative_result) VALUES
  ('AC-264700 (antibody, V domains shown) VH: EVQLVESGGGLVQPGGSLKLSCAASGFIFSNAVMYWVRQASGKGLEWVARIKTKFNNYATYYADSVKGRFTISRDDSKNMVYLQMNSLKTEDTAVYYCTAGDRNKPFAYWGQGTLVTVSS VL: ETVVTQSPATLSLSPGERATLSCRASDSVITLLHWFQQKPGQAPRLLIHGASNLESRVPARFSGSGSGTDFTLTISSLEPEDFATYFCQQSWNDPYTFGQGTKLEIKR', 'ADCC reporter huCCR8 EC50', 'nM', 0.12),
  ('AC-277483 (antibody, V domains shown) VH: EVQLVESGGGLVQPGGSLKLSCAASGFIFSNAVMYWVRQASGKGLEWVARIKTKFNNYATYYADAVKGRFTISRDDSKNMVYLQMNSLKTEDTAVYYCTAGDRNKPFAYWGQGTLVTVSS VL: ETVVTQSPATLSLSPGERATLSCRASDAVITLLHWFQQKPGQAPRLLIHGASNLESRVPARFSGSGSGTDFTLTISSLEPEDFATYFCQQSWNDPYTFGQGTKLEIKR', 'ADCC reporter huCCR8 EC50', 'nM', 0.07),
  ('AC-277371 (antibody, V domains shown) VH: EVQLVESGGGLVQPGGSLKLSCAASGFIFSNAVMYWVRQASGKGLEWVARIKTKFNNYATYYADAVKGRFTISRDDSKNMVYLQMNSLKTEDTAVYYCTAGDRNKPFAYWGQGTLVTVSS VL: ETVVTQSPATLSLSPGERATLSCRASGSVITLLHWFQQKPGQAPRLLIHGASNLESRVPARFSGSGSGTDFTLTISSLEPEDFATYFCQQSWNDPYTFGQGTKLEIKR', 'ADCC reporter huCCR8 EC50', 'nM', 0.05);

Could you now look at the following binder, please?
INPUT: May I ask what ADCC reporter huCCR8 EC50 has been recorded for AC-277357 (fucosylated) (antibody, human IgG1, kappa, V domains shown, AC-264700 with LCDR1 D27→T. Human IgG1 kappa) VH: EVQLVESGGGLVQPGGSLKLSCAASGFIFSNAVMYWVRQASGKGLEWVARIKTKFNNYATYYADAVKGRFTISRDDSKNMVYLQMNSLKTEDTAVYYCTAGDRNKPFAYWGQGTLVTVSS VL: ETVVTQSPATLSLSPGERATLSCRASTSVITLLHWFQQKPGQAPRLLIHGASNLESRVPARFSGSGSGTDFTLTISSLEPEDFATYFCQQSWNDPYTFGQGTKLEIKR ?
OUTPUT: 0.1
